system: BGM-VN; assay: Cytotoxicity, MTT assay; format: cell-based; details: 24 h incubation
MEASURE: MLD50 (μM) BGM-VN (µM)
Give bare numbers, in µM.

NCCNc1ccnc2cc(Cl)ccc12: 179
C#CCNc1ccnc2cc(Cl)ccc12: 407

# input for lookup
Task: Item under review: CCN(CC)CC#CCNc1ccnc2cc(Cl)ccc12 . Reported MLD50 (μM) BGM-VN?
Result: 1481
